Reported viability at 28.5 h, 10 µM values for the following compounds.
test: in vitro; details: human, hela cells, % viability
Returns: string containing the number followed by the unit.

>  <compound-smiles>
Cc1[nH]c(=O)c(C(=O)Nc2ccc(-n3ccc(C(N)=O)n3)cc2)cc1-c1ccccc1

>  <viability at 28.5 h, 10 µM>
109%

$$$$
>  <compound-smiles>
O=C1CC2(CCN(Cc3ccc(C(F)(F)F)cc3)CC2)CN1

>  <viability at 28.5 h, 10 µM>
86.8%

$$$$

Asked: I am curious: what viability at 28.5 h, 10 µM value has been reported for `CC(C)(C)OC(=O)N1CCC(N(CCC(F)(F)F)Cc2ccc(-c3ccc(S(C)(=O)=O)cc3)nc2)CC1` ?
Given back: 81%

Asked: Recorded viability at 28.5 h, 10 µM of `COC(=O)[C@H]1CN(C(=O)c2cn(C)nc2C)C[C@@H]1c1ccc(F)cc1` , please.
Given back: 96.6%

Asked: Fill in the blank: the reported viability at 28.5 h, 10 µM of `CNC(=O)c1cccc(NC(=O)c2cc(-c3ccc(O)cc3)cnc2N(C)C)c1` is ____.
Given back: 89.6%

Asked: I would be grateful if you could share the reported viability at 28.5 h, 10 µM for `Cc1ccc(N(CC(=O)Nc2ccc(S(=O)(=O)N3CCCCC3)cc2)S(C)(=O)=O)c(C)c1` .
Given back: 99.8%

Asked: Look at this compound and give its reported viability at 28.5 h, 10 µM. `O=C(O)Cn1cc(I)c(=O)[nH]c1=O`
Given back: 98.6%

====

tested on: C. trachomatis L2/434/Bu expressing GFP (CTL2-GFP); construct: L2/434/Bu GFP intracellular growth in HeLa cells; test: microbe, parasite or virus in culture; design: C. trachomatis total inclusion area by high-content imaging, normalised to DMSO; conditions: Chlamydia trachomatis, HeLa, 28.5 h; total inclusion area; read-out: % of control remaining
Here, each record is paired with measured activity at 5 µM data.
Numbers only; they are read as %.

>  <compound>
COc1cccc(C(=O)N2CCC(Cc3ccc(-c4cccc(C)c4)cc3)(C(N)=O)CC2)c1 [CBK285779]

>  <target>
C. trachomatis L2/434/Bu expressing GFP (CTL2-GFP)

>  <activity at 5 µM (%)>
114

$$$$
>  <compound>
Cn1cc(C(c2ccc(OCC(=O)O)cc2)c2cn(C)c3ccccc23)c2ccccc21 [CBK266403]

>  <target>
C. trachomatis L2/434/Bu expressing GFP (CTL2-GFP)

>  <activity at 5 µM (%)>
36

$$$$
>  <compound>
Oc1ccccc1Nc1nc(NC2CCCC2)c2ccccc2n1 [CBK268402C]

>  <target>
C. trachomatis L2/434/Bu expressing GFP (CTL2-GFP)

>  <activity at 5 µM (%)>
23.2

$$$$

Asked: Quick check: activity at 5 µM of CC(C)c1ccc(/C=C/C(=O)NCc2ccc(NS(C)(=O)=O)cc2)cc1 [CBK161512] ?
Given back: 59.3

Asked: # input compound: Cc1cc(Br)ccc1C(=O)NCCc1c[nH]c2ccc(Cl)cc12 [CBK159771] ; wanted: its activity at 5 µM
Given back: 67.5

====

test: in vitro; settings: human, hela cells, % viability
endpoint-label: viability at 28.5 h, 10 µM (%)
The reply should be a number in %, with the unit left off.

These recorded examples may help you get a feel for the data.
>  <molecule>
CC(Oc1cccc(Cl)c1)C(=O)O/N=C(\N)Cc1cccc2ccccc12 (stereo not drawn)

>  <endpoint-unit>
%

>  <viability at 28.5 h, 10 µM>
90.3

$$$$
>  <molecule>
CCOCCCC(=O)N1CCN(Cc2nnc3n2CCCCC3)CC1

>  <endpoint-unit>
%

>  <viability at 28.5 h, 10 µM>
90.9

$$$$
>  <molecule>
COc1ccc(CN2CCCN(C(=O)c3cccc(C#N)c3)CC2)cc1

>  <endpoint-unit>
%

>  <viability at 28.5 h, 10 µM>
88.5

$$$$
>  <molecule>
O=C(Nc1ccc(Cl)cc1Cl)NC(Cc1ccc(O)cc1)C(=O)O (stereo not drawn)

>  <endpoint-unit>
%

>  <viability at 28.5 h, 10 µM>
90.9

$$$$
>  <molecule>
CN(CC(=O)N1CCCCCC1)S(=O)(=O)c1cc(Cl)ccc1Cl

>  <endpoint-unit>
%

>  <viability at 28.5 h, 10 µM>
92.4

$$$$

# ---- query molecule ----
Asked: Tell me the measured viability at 28.5 h, 10 µM of CCC(=O)N1CCCc2cc(C(O)CN3CCCC(C)C3)ccc21 (stereo not drawn) , please.
Given back: 89.2

====

test: in vitro; conditions: human, hela cells, % viability
endpoint-label: viability at 28.5 h, 10 µM (%)
Field format: number, assumed %, no unit text.

The cases that follow already have their viability at 28.5 h, 10 µM on record.
>  <compound-smiles>
COC(=O)c1c(NS(=O)(=O)c2cccc(Cl)c2)csc1C

>  <viability at 28.5 h, 10 µM / %>
79.6

$$$$
>  <compound-smiles>
O=C(c1csc2c1CCCC2)N1CCC(O)(c2ccccn2)CC1

>  <viability at 28.5 h, 10 µM / %>
107

$$$$

Asked: Please report the recorded viability at 28.5 h, 10 µM for `CCOc1cccc(C(=O)NN2CCN(C)CC2)c1` .
Given back: 97.7

====

Item-by-item account of viability at 28.5 h, 10 µM
test: in vitro; details: human, hela cells, % viability
Use % as the unit, but write only the number.

// known answers, use as guide
>  <compound>
Cc1ccccc1-c1nc2ccc(NC(=O)CCC(=O)O)cc2o1

>  <viability at 28.5 h, 10 µM (%)>
93.4

$$$$
>  <compound>
C/C(=N\O)c1oc2ccccc2c(=O)c1O

>  <viability at 28.5 h, 10 µM (%)>
98.6

$$$$
>  <compound>
CN(C)CC/C=C1/c2ccccc2COc2ccc(CC(=O)O)cc21

>  <viability at 28.5 h, 10 µM (%)>
92.4

$$$$

Asked: Please give the measured viability at 28.5 h, 10 µM for this compound: `CN1CCCc2cc(CN3CCC4(CCCNC4=O)CC3)ccc21`
Given back: 101

Asked: For the compound shown here, `COc1ccc(-c2cc(-c3ccccc3)c(C#N)c(S(=O)(=O)Cc3ccccc3)n2)cc1` , give the reported viability at 28.5 h, 10 µM.
Given back: 89.6

Asked: Which viability at 28.5 h, 10 µM value is on record for Cc1cc(N(C)C)cc(C2CCCN(C(=O)C3CCC3)C2)n1 (stereo not shown) ?
Given back: 88.7

Asked: Query (compound): O=C1Cc2c(ccc3ccccc23)C2(CCN(CC3CCCCO3)CC2)N1 (stereo not shown) ; field requested: viability at 28.5 h, 10 µM
Given back: 98.8

Asked: Name the reported viability at 28.5 h, 10 µM value associated with the compound COc1ccc(C2N(N3C(=O)CC(=O)NC3=O)C(=O)CS2(=O)=O)cc1OC (stereo not shown)
Given back: 94.8

Asked: What value of measured viability at 28.5 h, 10 µM is listed for `Cn1nccc1NS(=O)(=O)c1cc(C(=O)O)c(Cl)cc1F` ?
Given back: 106

Asked: So what does the record say about viability at 28.5 h, 10 µM for O=C(NC1CC1)c1cc(C2CCCN(Cc3cccc(F)c3)C2)no1 (stereo not shown) ?
Given back: 99

====

assay: in vitro; details: human, hela cells, % viability
Reported values of viability at 28.5 h, 10 µM for individual entries
Respond numerically; units are % and should not be typed.

>  <compound>
CN(C)[C@H]1CCCC[C@@H]1OC(=O)c1ccc(C(F)(F)F)cc1 [CBK010550F]

>  <viability at 28.5 h, 10 µM / %>
90.1

$$$$
>  <compound>
O=C(NCc1n[nH]c(=S)n1-c1cccc(C(F)(F)F)c1)c1cccs1

>  <viability at 28.5 h, 10 µM / %>
91.2

$$$$
>  <compound>
COC(=O)Cn1c(=O)sc2cccc(Cl)c21

>  <viability at 28.5 h, 10 µM / %>
93.9

$$$$
>  <compound>
CCOc1ccccc1-c1ccccc1NC(=O)c1ccc2c(c1)ncn2C1CC1

>  <viability at 28.5 h, 10 µM / %>
84.3

$$$$
>  <compound>
COCC(C)NC(=O)Cn1c(C(F)F)cc2cccnc21 (centres unmarked)

>  <viability at 28.5 h, 10 µM / %>
105

$$$$
>  <compound>
Cc1ccccc1Cc1cccc(C2CCN(C(=O)Cc3ccccc3)CC2)n1

>  <viability at 28.5 h, 10 µM / %>
94.7

$$$$
>  <compound>
CC(=O)Oc1ccc2c(=O)cc(N(C)C)oc2c1C

>  <viability at 28.5 h, 10 µM / %>
60.5

$$$$
>  <compound>
Cn1cc(C(=O)NCC(c2ccccc2F)N2CCCC2)ccc1=O (centres unmarked)

>  <viability at 28.5 h, 10 µM / %>
83.9

$$$$

Asked: Query: viability at 28.5 h, 10 µM; subject: `COc1ccc(C(C)C)cc1-c1cnc2nc(O)ccc2c1`
Given back: 94.1

Asked: If you can, please state the reported viability at 28.5 h, 10 µM value of `CCN(CC)CCOc1c(C)cccc1Cl` .
Given back: 95.9

Asked: What value of viability at 28.5 h, 10 µM has been reported for the following compound? `Cc1nc2cccnc2n1CCNC(=O)c1cccc(Cl)c1`
Given back: 97.9

Asked: Name the reported viability at 28.5 h, 10 µM value associated with the compound `Cn1cc(/C=C(\C(=O)O)C(C(=O)O)=C2C3CC4CC(C3)CC2C4)c2ccccc21`
Given back: 96.5

Asked: Please look up its viability at 28.5 h, 10 µM: `NC(=O)CN1CC2(CCN(CCc3c[nH]c4ccccc34)CC2)c2ccccc21`
Given back: 93.3

Asked: Return reported viability at 28.5 h, 10 µM; argument: `CN(C)c1cc(CNC(=O)c2cc3ccccc3oc2=O)ccn1`
Given back: 88.8

From: paper PMC12040169
